All values here come from patent US9078871B2.

Biological target: ER-α (Homo sapiens, UniProt P03372)
Construct: endogenous in cells; host or cells: MCF-7
Sequence (P03372 1-595): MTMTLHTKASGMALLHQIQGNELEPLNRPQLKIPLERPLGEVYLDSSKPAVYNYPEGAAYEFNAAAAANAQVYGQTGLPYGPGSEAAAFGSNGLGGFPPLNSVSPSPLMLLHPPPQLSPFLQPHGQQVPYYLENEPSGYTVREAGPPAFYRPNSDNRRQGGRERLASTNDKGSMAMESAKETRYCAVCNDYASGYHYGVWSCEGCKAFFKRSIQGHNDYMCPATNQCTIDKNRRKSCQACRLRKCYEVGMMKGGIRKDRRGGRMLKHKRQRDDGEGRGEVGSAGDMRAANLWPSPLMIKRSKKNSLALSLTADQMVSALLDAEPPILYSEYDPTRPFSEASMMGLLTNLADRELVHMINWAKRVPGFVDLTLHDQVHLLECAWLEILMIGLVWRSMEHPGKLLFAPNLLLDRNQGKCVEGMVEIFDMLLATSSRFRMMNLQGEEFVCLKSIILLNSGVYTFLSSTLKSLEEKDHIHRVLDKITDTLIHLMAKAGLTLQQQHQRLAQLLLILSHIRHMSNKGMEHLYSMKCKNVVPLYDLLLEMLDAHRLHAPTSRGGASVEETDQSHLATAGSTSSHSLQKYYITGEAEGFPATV
Assay: ER-α in Cell Western Assay (SP1)
Assay type: cell-based
Settings: MCF7; MCF-7 cells, SP1 rabbit monoclonal Ab, 4 or 24 hr post compound addition; read-out: ER In-Cell Western Assay (SP1); Max Response
recorded endpoint: Emax

Some solved entries appear below for comparison.
Lab note: compound CC1=C(c2cccc(O)c2F)C(c2ccc(OC[C@H](C)N3CC[C@@H](C)C3)cc2)Oc2ccc(O)cc21 (stereo partly shown) tested on ER-α (Homo sapiens, UniProt P03372); recorded Emax was ≥ 85%

Lab note: compound CC1=C(c2cccc(O)c2)C(c2ccc(OCCN3CCCC3)cc2)Oc2cc(O)ccc21 (stereo not shown) tested on ER-α (Homo sapiens, UniProt P03372); recorded Emax was 60 to 85%

Lab note: compound CC1=C(c2ccc(F)cc2)C(c2ccc(OCCN3CCCC3)cc2)Oc2ccc(O)cc21 (stereo not shown) tested on ER-α (Homo sapiens, UniProt P03372); recorded Emax was 60 to 85%

Lab note: compound CC1=C(c2cccc(O)c2)[C@@H](c2ccc(OC[C@H](C)N3CC[C@@H](C)C3)cc2)Oc2ccc(O)cc21 (single isomer, unassigned) tested on ER-α (Homo sapiens, UniProt P03372); recorded Emax was ≥ 85%

Next:
Lab note: compound CC1=C(c2cccc(O)c2)C(c2ccc(OC[C@H](C)N3CC[C@H](C)C3)cc2)Oc2ccc(O)cc21 (stereo partly shown) tested on ER-α (Homo sapiens, UniProt P03372); recorded Emax was 60 to 85%

Lab note: compound CC1=C(c2cccc(O)c2)C(c2ccc(OC[C@H](C)n3cnc(C)c3)cc2)Oc2ccc(O)cc21 (stereo partly shown) tested on ER-α (Homo sapiens, UniProt P03372); recorded Emax was 60 to 85%

Lab note: compound CC1=C(c2cccc(O)c2C)C(c2ccc(OC[C@H](C)N3CC[C@@H](C)C3)cc2)Oc2ccc(O)cc21 (stereo partly shown) tested on ER-α (Homo sapiens, UniProt P03372); recorded Emax was 60 to 85%
